Test system: FOXM1^A2 mRNA and FOXM1^BC mRNA
Protocol notes: Splicing assay (FOXM1), qPCR of isoform mRNAs
Assay type: cell-based
Condition parameters: Homo sapiens, NCI-H358, 24 h, NCI-H358 cells; 24 hours; table does not say EC50 or IC50; read-out: FOXM1
What IC50 was measured for each of the following?

{"columns": ["Molecule", "IC50"],
 "data": [
  ["CN(c1ccc(-c2ccc(-c3ccn(C)c(=O)c3)cc2O)nn1)[C@H]1C[C@]2(C)CC[C@](C)(C1)N2", "1 to 10 nM"]
]}

Take each entry in turn and give its IC50.
1. CN(c1ccc(-c2ccc(-c3cn[nH]c3)cc2O)nn1)[C@H]1C[C@]2(C)CC[C@](C)(C1)N2
2. COc1cc(-c2ccc(-c3ccc(N(C)[C@H]4C[C@]5(C)CC[C@](C)(C4)N5)nn3)c(O)c2)cnn1

["1 to 10 nM", "1 to 10 nM"]

Please report the measured IC50 for CN(c1ccc(-c2cc(F)c(-c3cn[nH]c3)cc2O)nn1)[C@H]1C[C@]2(C)CC[C@](C)(C1)N2
< 1 nM

---

System: FOXM1^A2 mRNA and FOXM1^BC mRNA
Protocol notes: Splicing assay (FOXM1), qPCR of isoform mRNAs
Assay type: cell-based
Condition parameters: read-out: Splice EC50 (nM) FoxM1 A mRNA increase (exon excluded)
Procedure: Various cells lines were treated with the SMSMs described herein. RNA was then isolated, cDNA synthesized, qPCR performed and the levels of various mRNA targets of the SMSMs were determined. In some instances, RNA was isolated, cDNA synthesized, qPCR performed and the levels of mRNA isoforms in the various cell samples were determined. […] The determined isoform 2and isoform 1quantities were then be used to determine the isoform 2: […] at the various compound concentrations. […]
What EC50 was measured for each of the following?

Below are worked cases with known answers.
{"columns": ["Compound", "Obs value"],
 "data": [
  ["CN(c1ccc(-c2cc3oc(=O)n(C)c3cc2O)nn1)[C@@H]1C[C@H]2CC[C@@H](C1)N2", "10 to 100 nM"],
  ["CN(c1ccc(-c2ccc(-c3cn[nH]c3)cc2O)nn1)[C@@H]1C[C@H]2CC[C@@H](C1)N2", "10 to 100 nM"],
  ["Oc1cc(-c2cn[nH]c2)ccc1-c1ccc(O[C@H]2C[C@H]3CC[C@@H](C2)N3)nn1", "> 1000 nM"],
  ["Oc1cc(-c2cn[nH]c2)ccc1-c1ccc(N2CCC3CNCCC32)nn1 (stereo not shown)", "101 to 250 nM"],
  ["CN(c1ccc(-c2ccc(-c3cn[nH]c3)cc2O)nn1)[C@H]1C[C@H]2COC[C@@H](C1)N2", "> 1000 nM"]
]}

Take each entry in turn and give its EC50.
1. CNC(=O)c1cc2cc(-c3ccc(N(C)[C@H]4C[C@]5(C)CC[C@](C)(C4)N5)nn3)c(O)cc2o1
2. CC1(C)CC(N(c2ccc(-c3ccc(-c4cn[nH]c4)cc3O)nn2)C2CCC2)CC(C)(C)N1

1. < 10 nM
2. > 1000 nM

---

What IC50 was measured for each of the following?
Tested on: FOXM1^A2 mRNA and FOXM1^BC mRNA
Protocol notes: Splicing assay (FOXM1), qPCR of isoform mRNAs
Type: cell-based
Condition parameters: Homo sapiens, SH-SY5Y, 24 h, SH-SY5Y cells; 24 hours; table does not say EC50 or IC50; read-out: FOXM1

{"columns": ["Molecule", "Experimental system", "IC50"],
 "data": [
  ["CN(c1ccc(-c2ccc(-n3nccn3)cc2O)nn1)[C@@H]1C[C@H]2CC[C@@H](C1)N2", "FOXM1^A2 mRNA and FOXM1^BC mRNA", "11 to 100 nM"]
]}

Turning now to a further compound:
Please report the measured IC50 for CN(c1ccc(-c2ccc(-c3cn[nH]c3)cc2O)nn1)[C@@H]1C[C@H]2CC[C@@H](C1)N2
11 to 100 nM

Source: patent US11008572B2
